# measuredOn: T1, human GPC3 (Glypican-3) (human, UniProt P51654 25-580)
# T1 construct: whole, on cells; the cell line is named under assay or readout
# protocolDescription: FACS on HepG2 cells, top of the fitted fluorescence curve
measuredProperty: Top
# output: bare number, no unit

Prompt: Return reported Top; argument: Hu 52H5D3B8-8-ZLA (antibody, human IgG1, kappa, V domains shown, ZLA linker-payload on cysteine thiols freed by TCEP reduction of disulfide bonds; positions not given, Constant regions as for Hu 52H5D3B8-8; also called Hu 52H5D3B8-8 ADC; Anti-GPC3-ZLA) VH: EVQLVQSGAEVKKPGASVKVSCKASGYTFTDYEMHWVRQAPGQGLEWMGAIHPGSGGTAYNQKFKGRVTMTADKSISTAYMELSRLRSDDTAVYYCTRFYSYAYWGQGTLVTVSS VL: DVVMTQTPLSLSVTPGQPASISCRSSQSLVHSNGNTYLQWYLQKPGQSPQLLIYKVSNRFSGVPDRFSGSGSGTDFTLKISRVEAEDVGVYFCSQSIHVPYTFGGGTKVEIKR
Response: 69100

Prompt: Return reported Top; argument: GC33-L4-D4 (antibody, V domains shown, MC-MMAF (L4-D4) on cysteine thiols of the antibody freed by TCEP reduction of disulfide bonds; positions not given, Whole antibody; also called GC33 ADC; Anti-GPC3-L4-D4) VH: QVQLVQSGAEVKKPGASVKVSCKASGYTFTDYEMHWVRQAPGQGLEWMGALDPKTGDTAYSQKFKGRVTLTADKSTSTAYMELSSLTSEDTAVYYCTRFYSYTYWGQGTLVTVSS VL: DVVMTQSPLSLPVTPGEPASISCRSSQSLVHSNGNTYLHWYLQKPGQSPQLLIYKVSNRFSGVPDRFSGSGSGTDFTLKISRVEAEDVGVYYCSQNTHVPPTFGQGTKLEIK
Response: 60200

Prompt: Return reported Top; argument: Hu 52H5D3B8-8-L4-D4 (antibody, human IgG1, kappa, V domains shown, MC-MMAF (L4-D4) on cysteine thiols freed by TCEP reduction of disulfide bonds; positions not given, Constant regions as for Hu 52H5D3B8-8; also called Hu 52H5D3B8-8 ADC; Anti-GPC3-L4-D4) VH: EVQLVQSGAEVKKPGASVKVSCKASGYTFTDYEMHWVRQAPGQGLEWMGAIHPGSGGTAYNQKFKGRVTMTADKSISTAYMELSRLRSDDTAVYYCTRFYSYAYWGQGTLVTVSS VL: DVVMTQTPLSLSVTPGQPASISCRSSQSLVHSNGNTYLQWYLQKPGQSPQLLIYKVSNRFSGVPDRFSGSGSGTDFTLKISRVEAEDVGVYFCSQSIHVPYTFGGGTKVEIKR
Response: 72900

Prompt: Return reported Top; argument: GC33 antibody (Chugai Pharmaceutical) (antibody, V domains shown, Control antibody, prepared as in US 7919086 B2; Whole antibody; Detected with anti-human IgG) VH: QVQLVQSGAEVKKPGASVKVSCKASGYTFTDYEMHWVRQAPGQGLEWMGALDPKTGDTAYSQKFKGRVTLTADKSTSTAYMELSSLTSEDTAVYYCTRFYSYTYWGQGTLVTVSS VL: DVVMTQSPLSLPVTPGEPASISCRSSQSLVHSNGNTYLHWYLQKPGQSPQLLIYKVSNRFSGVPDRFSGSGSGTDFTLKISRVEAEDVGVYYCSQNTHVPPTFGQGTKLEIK
Response: 64100

Prompt: Return reported Top; argument: Hu 52H5D3B8-8 (antibody, human IgG1, kappa, V domains shown, also called humanized GPC3 antibody Hu 52H5D3B8-8) VH: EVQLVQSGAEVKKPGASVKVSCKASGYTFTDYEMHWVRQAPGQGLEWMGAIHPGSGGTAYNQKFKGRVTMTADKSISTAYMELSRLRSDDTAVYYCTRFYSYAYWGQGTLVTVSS VL: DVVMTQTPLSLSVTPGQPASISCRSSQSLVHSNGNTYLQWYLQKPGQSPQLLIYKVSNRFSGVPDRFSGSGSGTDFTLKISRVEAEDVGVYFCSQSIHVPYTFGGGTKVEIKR
Response: 75000

Prompt: Return reported Top; argument: GC33-ZLA (antibody, V domains shown, ZLA linker-payload on cysteine thiols of the antibody freed by TCEP reduction of disulfide bonds; positions not given, Whole antibody; also called GC33 ADC; Anti-GPC3-ZLA) VH: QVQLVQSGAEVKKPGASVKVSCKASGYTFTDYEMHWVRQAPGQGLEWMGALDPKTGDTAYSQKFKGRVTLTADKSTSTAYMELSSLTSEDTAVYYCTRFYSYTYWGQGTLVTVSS VL: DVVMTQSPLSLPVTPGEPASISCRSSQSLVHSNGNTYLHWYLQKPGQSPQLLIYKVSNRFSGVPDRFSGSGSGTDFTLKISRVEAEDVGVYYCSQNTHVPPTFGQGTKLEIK
Response: 68000
